Provide the reported pIC50 of each item.
experiment: Inhibition of Saccharomyces cerevisiae alpha-glucosidase using p-nitrophenyl-alpha-D-glucopyranoside as substrate preincubated for 15 to 20 mins followed by substrate addition measured after 45 to 60 mins by spectrophotometric analysis
One number for each entry, as −log10 of the molar value.

// for each molecule below, give its pIC50
1. CC(C)(C)OC(=O)Nc1ccc(CCC(=O)Nc2ccc(CCC(=O)N3CC[C@@H](O)[C@H](O)C3)cc2)cc1 (relative stereo)
2. Cn1c(CCC(=O)N2CC[C@@H](O)[C@@H](O)C2)cc2ccccc21 (relative stereo)
3. O=C(CCc1ccc(NS(=O)(=O)c2ccc(F)cc2)cc1)N1CC[C@H](O)[C@H](O)C1 (relative stereo)
4. O=C(/C=C/c1ccc(C(F)(F)F)cc1)Nc1ccc(CCC(=O)N2CC[C@@H](O)[C@H](O)C2)cc1 (relative stereo)
5. Nc1ccc(CCC(=O)N2CC[C@H](O)[C@@H](O)C2)cc1 (relative stereo)

[3.13, 3.41, 3.13, 3.15, 3.54]

Provide the reported pIC50 of each entry below, same order.
1. O=C(/C=C/c1ccsc1)Nc1ccc(CCC(=O)N2CC[C@H](O)[C@H](O)C2)cc1 (relative stereo)
2. O=S(=O)(c1ccc(OC(F)(F)F)cc1)N1CC[C@@H](O)[C@@H](O)C1 (relative stereo)
3. O=C(CCc1ccc(O)cc1)Nc1ccc(CCC(=O)N2CC[C@@H](O)[C@H](O)C2)cc1 (relative stereo)
4. O=C(CCc1ccsc1)N1CC[C@H](O)[C@@H](O)C1 (relative stereo)
5. C[C@H]1O[C@H](O[C@H]2[C@H](O)[C@@H](O)[C@@H](O[C@H]3[C@H](O)[C@@H](O)C(O)O[C@@H]3CO)O[C@@H]2CO)[C@H](O)[C@@H](O)[C@@H]1N[C@H]1C=C(CO)[C@@H](O)[C@H](O)[C@H]1O (some centres not stated)

1. 3.18
2. 3.33
3. 3.31
4. 3.82
5. 3.44

Hi, could you look up pIC50 for each item in my list?
1. O=C(/C=C/c1ccsc1)N1CC[C@@H](O)[C@@H](O)C1 (relative stereo)
2. O=C(CCc1ccc(N(S(=O)(=O)c2ccc(C(F)(F)F)cc2)S(=O)(=O)c2ccc(C(F)(F)F)cc2)cc1)N1CC[C@H](O)[C@H](O)C1 (relative stereo)
3. O=C(CCc1ccc(O)cc1)N1CC[C@H](O)[C@@H](O)C1 (relative stereo)
4. O=C(/C=C/c1ccc(F)cc1)Nc1ccc(CCC(=O)N2CC[C@H](O)[C@H](O)C2)cc1 (relative stereo)
5. O=C(Nc1ccc(CCC(=O)N2CC[C@H](O)[C@H](O)C2)cc1)c1ccsc1 (relative stereo)
6. CC(C)(C)OC(=O)Nc1ccc(CCC(=O)Nc2ccc(CCC(=O)N3CC[C@H](O)[C@H](O)C3)cc2)cc1 (relative stereo)

1: 3.05; 2: 3.23; 3: 3.37; 4: 3.46; 5: 3.57; 6: 3.42

Items follow; give pIC50 for each.
1. O=C(CCc1ccc(C(F)(F)F)cc1)N1CC[C@@H](O)[C@@H](O)C1 (relative stereo)
2. O=C(CCc1ccccc1)N1CC[C@@H](O)[C@@H](O)C1 (relative stereo)
3. O=C(CCc1ccc(O)cc1)N1CC[C@@H](O)[C@@H](O)C1 (relative stereo)
4. O=C(CCc1ccc(NS(=O)(=O)c2ccc(C(F)(F)F)cc2)cc1)N1CC[C@H](O)[C@H](O)C1 (relative stereo)
5. Nc1ccc(CCC(=O)N2CC[C@@H](O)[C@@H](O)C2)cc1 (relative stereo)
6. O=C(/C=C/c1ccc(C(F)(F)F)cc1)Nc1ccc(CCC(=O)N2CC[C@H](O)[C@H](O)C2)cc1 (relative stereo)

[3.13, 3.00, 3.53, 3.99, 3.68, 3.05]

Just for reference, ChEMBL document CHEMBL4196068 is where these values come from.
